// reported log10(EC50) for each item listed
subject.of.test: Glucose-dependent insulinotropic receptor (Mus musculus)
Sequence (Q7TQP3 whole entry): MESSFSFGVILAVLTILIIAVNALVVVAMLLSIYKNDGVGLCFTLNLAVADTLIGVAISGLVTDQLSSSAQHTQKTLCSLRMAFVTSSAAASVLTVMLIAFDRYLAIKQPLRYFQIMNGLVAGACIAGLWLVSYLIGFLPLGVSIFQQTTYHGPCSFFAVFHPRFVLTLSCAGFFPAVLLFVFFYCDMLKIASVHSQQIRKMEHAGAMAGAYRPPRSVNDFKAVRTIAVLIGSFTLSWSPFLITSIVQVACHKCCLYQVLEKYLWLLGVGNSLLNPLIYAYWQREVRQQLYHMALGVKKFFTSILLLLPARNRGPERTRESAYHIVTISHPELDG
assay.overview: Agonist activity at mouse GPR119 receptor expressed in CHO-K1 cells assessed as cAMP accumulation after 30 mins by HTRF assay
Log10 applied to EC50; unit prior to transform: µM.

CC(C)(C)OC(=O)N1CCC(CCCNc2ccc3c(c2)CCS3(=O)=O)CC1: -0.65
CC(C)(C)OC(=O)N1CCC(CCCNc2ccc3c(c2)OCC3=O)CC1: -1.18
CC(C)c1nsc(N2CCC(CCCNc3ccc4c(c3)OCC4=O)CC2)n1: -0.09
COc1cnc(N2CCC(CCCNc3ccc4c(c3)OCC4=O)CC2)nc1: -1.22

Ask | Lookup: log10(EC50) / Glucose-dependent insulinotropic receptor (Mus musculus) / `CC(C)(C)OC(=O)N1CCC(CCCNc2ccc3c(c2)CCC3=O)CC1`
Reply | -1.06

Ask | Lookup: log10(EC50) / Glucose-dependent insulinotropic receptor (Mus musculus) / `CC(C)(C)OC(=O)N1CCC(CCCNc2ccc3c(c2)CNC3=O)CC1`
Reply | -0.29

Ask | Lookup: log10(EC50) / Glucose-dependent insulinotropic receptor (Mus musculus) / `CC(C)(C)OC(=O)N1CCC(CCCNc2ccc3c(c2)NNS3(=O)=O)CC1`
Reply | -0.48

Ask | Lookup: log10(EC50) / Glucose-dependent insulinotropic receptor (Mus musculus) / `COC(=O)c1cnc(N2CCC(CCCNc3ccc4c(c3)OCC4=O)CC2)nc1`
Reply | -0.86

Ask | Lookup: log10(EC50) / Glucose-dependent insulinotropic receptor (Mus musculus) / `CCc1cnc(N2CCC(CCCNc3ccc4c(c3)C(=O)CC4)CC2)nc1`
Reply | -0.78

Ask | Lookup: log10(EC50) / Glucose-dependent insulinotropic receptor (Mus musculus) / `CC(C)(C)OC(=O)N1CCC(CCCNc2ccc3c(c2)C(=O)CC3)CC1`
Reply | -0.91

Ask | Lookup: log10(EC50) / Glucose-dependent insulinotropic receptor (Mus musculus) / `CCc1cnc(N2CCC(CCCNc3ccc4c(c3)OCC4=O)CC2)nc1`
Reply | -0.80

Ask | Lookup: log10(EC50) / Glucose-dependent insulinotropic receptor (Mus musculus) / `CC(C)(C)OC(=O)N1CCC(CCCNc2ccc3c(c2)C(=O)CCO3)CC1`
Reply | -0.45

Ask | Lookup: log10(EC50) / Glucose-dependent insulinotropic receptor (Mus musculus) / `CC(C)(C)OC(=O)N1CCC(CCCNc2ccc3c(c2)C(=O)NC3)CC1`
Reply | -0.05

Ask | Lookup: log10(EC50) / Glucose-dependent insulinotropic receptor (Mus musculus) / `CC(C)(C)OC(=O)N1CCC(CCCNc2ccc3c(c2)OCS3(=O)=O)CC1`
Reply | -0.58

* * *

// reported EC50 for each item listed
subject.of.test: Glucose-dependent insulinotropic receptor (Homo sapiens, UniProt Q8TDV5)
Sequence (Q8TDV5 whole entry): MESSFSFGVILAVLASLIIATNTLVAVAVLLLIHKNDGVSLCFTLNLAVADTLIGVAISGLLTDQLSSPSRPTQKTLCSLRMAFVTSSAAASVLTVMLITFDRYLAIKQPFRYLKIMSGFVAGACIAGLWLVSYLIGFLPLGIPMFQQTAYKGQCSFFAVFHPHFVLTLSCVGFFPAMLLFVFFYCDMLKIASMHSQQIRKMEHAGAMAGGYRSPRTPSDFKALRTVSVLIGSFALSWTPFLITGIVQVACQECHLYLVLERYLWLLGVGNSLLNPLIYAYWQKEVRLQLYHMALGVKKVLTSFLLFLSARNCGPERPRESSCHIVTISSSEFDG
assay.overview: Agonist activity at human GPR119 receptor expressed in CHO-K1 cells assessed as cAMP accumulation after 30 mins by HTRF assay
Numeric only. Scale: µM

# annotated cases, reported EC50 shown
CC(C)(C)OC(=O)N1CCC(CCCNc2ccc3c(c2)CNC3=O)CC1: 0.55
CC(C)(C)OC(=O)N1CCC(CCCOc2ccc3c(c2)CCS3(=O)=O)CC1: 0.736
CC(C)(C)OC(=O)N1CCC(CCCNc2ccc3c(c2)S(=O)(=O)CC3)CC1: 1.03
CC(C)(C)OC(=O)N1CCC(CCCNc2ccc3c(c2)CCS3(=O)=O)CC1: 0.27
CC(C)(C)OC(=O)N1CCC(CCCNc2ccc3c(c2)C(=O)CO3)CC1: 0.088
COc1cnc(N2CCC(CCCNc3ccc4c(c3)OCC4=O)CC2)nc1: 0.115

Ask | For `CC(C)(C)OC(=O)N1CCC(CCCNc2ccc3c(c2)C(=O)CC3)CC1` , what is its reported EC50?
Reply | 0.046

Ask | For `CC(C)(C)OC(=O)N1CCC(CCCNc2ccc3c(c2)OCCS3(=O)=O)CC1` , what is its reported EC50?
Reply | 0.511

Ask | For `CC(C)(C)OC(=O)N1CCC(CCCNc2ccc3c(c2)OCC3=O)CC1` , what is its reported EC50?
Reply | 0.052

Ask | For `CC(C)(C)OC(=O)N1CCC(CCCNc2ccc3c(c2)C(=O)CCO3)CC1` , what is its reported EC50?
Reply | 0.272

Ask | For `CC(C)c1noc(N2CCC(CCCNc3ccc4c(c3)C(=O)CC4)CC2)n1` , what is its reported EC50?
Reply | 0.058

Ask | For `CC(C)(C)OC(=O)N1CCC(CCCCNc2ccc3c(c2)CCS3(=O)=O)CC1` , what is its reported EC50?
Reply | 0.21

Ask | For `CC(C)(C)OC(=O)N1CCC(CCCC(=O)Nc2ccc3c(c2)CCS3(=O)=O)CC1` , what is its reported EC50?
Reply | 2.61

Ask | For `CC(C)(C)OC(=O)N1CCC(CCCNc2ccc3c(c2)C(=O)NC3)CC1` , what is its reported EC50?
Reply | 0.734

These data points were gathered from ChEMBL document CHEMBL2057173.
